# target_of_assay: HLA-A*0202 (human), P30375
# method_summary: competition with 125I-labeled probe for purified HLA, gel filtration
readout_kind: pIC50
Kindly note that pIC50 refers to -log10 of the concentration in mol/L and answer with the value alone.

Prompt line: Which pIC50 value is on record for YLVAYQATV (modifications not checked) [HCV NS4 1590 peptide 1013.02] ?
Response line: 7.41
